Values from patent US4927919A

Listed here: items and their measured LD50.
Experiment: Acute toxicity (LD50, single intravenous administration)
Design: species or system day mice
Conditions: mouse, in vivo, mice, single i.v., Preparation Example 7

>  <compound>
COC1C(N)C(C)OC(OC2C(Oc3cccc4c(OC(=O)Cc5ccccc5)c5c(=O)oc6ccc(C)c7c(=O)oc(c34)c5c67)OC(C)C3OC(c4ccccc4)OC32)C1O (centres unmarked)

>  <result>
≥ 40 mg/kg

$$$$

query: Return reported LD50; argument: CCCCCC(=O)Oc1c2cccc(OC3OC(C)C4OC(c5ccccc5)OC4C3OC3OC(C)C(N)C(OC)C3O)c2c2oc(=O)c3c(C)ccc4oc(=O)c1c2c43 (centres unmarked)
result: ≥ 40 mg/kg

* * *

Experiment: Acute toxicity (LD50, single intravenous administration)
Design: species or system day mice
Settings: mouse, in vivo, mice, single i.v., Preparation Example 5
measuredQuantity: LD50

query: Suppose we examine the molecule COC1C(O)C(C)OC(OC2C(Oc3cccc4c(OC(=O)c5ccc6ccccc6n5)c5c(=O)oc6ccc(C)c7c(=O)oc(c34)c5c67)OC(C)C3OC(C)(C)OC32)C1O (stereo not shown) ; what LD50 value has been reported?
result: ≥ 80 mg/kg

* * *

Assay: Acute toxicity (LD50, single intravenous administration)
Parameters: species or system day mice
Conditions: mouse, in vivo, mice, single i.v., Preparation Example 1
Let's look at some compounds and their measured LD50.

Consider the worked cases shown below.
>  <compound>
COC1C(O)C(C)OC(OC2C(Oc3cccc4c(OC(=O)c5ccc[nH]5)c5c(=O)oc6ccc(C)c7c(=O)oc(c34)c5c67)OC(C)C3OC(c4ccccc4)OC32)C1O (stereo not shown) [Compound 1]

>  <measuredQuantity>
LD50

>  <result>
≥ 40 mg/kg

$$$$
>  <compound>
COC1C(O)C(C)OC(OC2C(Oc3cccc4c(OC(=O)c5cc6cc(O)ccc6[nH]5)c5c(=O)oc6ccc(C)c7c(=O)oc(c34)c5c67)OC(C)C3OC(c4ccccc4)OC32)C1O (stereo not shown) [Compound 102]

>  <measuredQuantity>
LD50

>  <result>
≥ 60 mg/kg

$$$$
>  <compound>
COC1C(O)C(C)OC(OC2C(Oc3cccc4c(OC(=O)c5ccc[nH]5)c5c(=O)oc6ccc(C)c7c(=O)oc(c34)c5c67)OC(C)C3OC(c4cccc(Br)c4)OC32)C1O (stereo not shown) [Compound 31]

>  <measuredQuantity>
LD50

>  <result>
≥ 40 mg/kg

$$$$
>  <compound>
COC1C(N)C(C)OC(OC2C(Oc3cccc4c(OC(=O)CCNC=O)c5c(=O)oc6ccc(C)c7c(=O)oc(c34)c5c67)OC(C)C3OC(c4ccccc4)OC32)C1O (stereo not shown) [Compound 42]

>  <measuredQuantity>
LD50

>  <result>
≥ 40 mg/kg

$$$$
>  <compound>
COC1C(O)C(C)OC(OC2C(Oc3cccc4c(OC(=O)c5cc(-c6ccccc6)nc6ccccc56)c5c(=O)oc6ccc(C)c7c(=O)oc(c34)c5c67)OC(C)C3OC(c4ccccc4)OC32)C1O (stereo not shown) [Compound 28]

>  <measuredQuantity>
LD50

>  <result>
≥ 20 mg/kg

$$$$

query: # lookup: LD50 of COC1C(N)C(C)OC(OC2C(Oc3cccc4c(OC(=O)C(C)CNC(=O)C(F)(F)F)c5c(=O)oc6ccc(C)c7c(=O)oc(c34)c5c67)OC(C)C3OC(c4ccccc4)OC32)C1O (stereo not shown) [Compound 40]
result: ≥ 40 mg/kg

query: Tell me the measured LD50 of CCn1cc(C(=O)Oc2c3cccc(OC4OC(C)C5OC(c6ccccc6)OC5C4OC4OC(C)C(O)C(OC)C4O)c3c3oc(=O)c4c(C)ccc5oc(=O)c2c3c54)c(=O)c2ccc(C)nc21 (stereo not shown) [Compound 33] , please.
result: ≥ 40 mg/kg

query: // lookup LD50 for CCn1cc(C(=O)Oc2c3cccc(OC4OC(C)C5OC(c6ccccc6)OC5C4OC4OC(C)C(O)C(OC)C4O)c3c3oc(=O)c4c(C)ccc5oc(=O)c2c3c54)c(=O)c2cnc(N3CCNCC3)nc21 (stereo not shown) [Compound 106]
result: ≥ 60 mg/kg

query: For the compound COC1C(N)C(C)OC(OC2C(Oc3cccc4c(OC(=O)CC(C)NC(=O)C(F)(F)F)c5c(=O)oc6ccc(C)c7c(=O)oc(c34)c5c67)OC(C)C3OC(c4ccccc4)OC32)C1O (stereo not shown) [Compound 41] , what LD50 is on record?
result: ≥ 40 mg/kg

query: Fill in the blank: the reported LD50 of COC1C(O)C(C)OC(OC2C(Oc3cccc4c(OC(=O)c5c(-c6ccccc6)noc5C)c5c(=O)oc6ccc(C)c7c(=O)oc(c34)c5c67)OC(C)C3OC(c4ccccc4)OC32)C1O (stereo not shown) [Compound 14] is ____.
result: ≥ 60 mg/kg
